Hello, the source for this data is the supplement of paper PMC8728848, in case you need it.

# glycan array binding signal (z-score) per entry
target: Neu5Ac(b2-6)GalNAc; test: glycan array binding signal (z-score within array); higher = stronger binding; conditions: glycan notation: IUPAC condensed, linker removed
Only a selection was taken, and the strongest signals are over-represented in it overall.
Response field accepts a number only; no unit should be typed.

Example results:
1) L-Selectin (Mus musculus), P18337 (protein) MVFPWRCEGTYWGSRNILKLWVWTLLCCDFLIHHGTHCWTYHYSEKPMNWENARKFCKQNYTDLVAIQNKREIEYLENTLPKSPYYYWIGIRKIGKMWTWVGTNKTLTKEAENWGAGEPNNKKSKEDCVEIYIKRERDSGKWNDDACHKRKAALCYTASCQPGSCNGRGECVETINNHTCICDAGYYGPQCQYVVQCEPLEAPELGTMDCIHPLGNFSFQSKCAFNCSEGRELLGTAETQCGASGNWSSPEPICQVVQCEPLEAPELGTMDCIHPLGNFSFQSKCAFNCSEGRELLGTAETQCGASGNWSSPEPICQETNRSFSKIKEGDYNPLFIPVAVMVTAFSGLAFLIWLARRLKKGKKSQERMDDPY
-0.495
2) MRCL (Homo sapiens), NP_872425.1 (protein) ATKVHFPFHTCDLRIDGDCFMVSSEADTYYRARMKCQRKGGVLAQIKSQKVQDILAFYLGRLETTNEVTDSDFETRNFWIGLTYKTAKDSFRWATGEHQAFTSFAFGQPDNHGLVWLSAAMGFGNCVELQASAAFNWNNQRCKTRNRYICQFAQEHISRWGPGS
5.61
3) MGL2 (Mus musculus), Q8JZN1 (protein) MTMRYENFQNLEREEKNQEMRNGDKKGGMESPKFALIPSQSFLWRILSWTHLLLFSLGLSLLLLVVISVIGSQNSQLRRDLGTLRAILDNTTSKIKAEFQSLDSRADNFEKGISSLKVDVEDHRQELQAGRDLSQKVTSLESTLEKREQALKTDLSDLTDHVQQLETDLKALTCQLANLKNNGSEVACCPLHWTEHEGSCYWFSESEKSWPEADKYCRLENSHLVVVNSLEEQNFLQNRLANVLSWMGLTDQNGPWRWVDGTDFDKGFKNWRPLQPDNWHGHMLGGGEDCAHFSYDGRWNDDVCQRHYHWICETELGKASSAHSPQLIASVP
-0.176

Okay, next one:
Prompt: State, in one line, measured glycan array binding signal (z-score) of LSECtin (Homo sapiens), Q6UXB4 (protein) MDTTRYSKWGGSSEEVPGGPWGRWVHWSRRPLFLALAVLVTTVLWAVILSILLSKASTERAALLDGHDLLRTNASKQTAALGALKEEVGDCHSCCSGTQAQLQTTRAELGEAQAKLMEQESALRELRERVTQGLAEAGRGREDVRTELFRALEAVRLQNNSCEPCPTSWLSFEGSCYFFSVPKTTWAAAQDHCADASAHLVIVGGLDEQGFLTRNTRGRGYWLGLRAVRHLGKVQGYQWVDGVSLSFSHWNQGEPNDAWGRENCVMMLHTGLWNDAPCDSEKDGWICEKRHNC
Completion: -0.124
